assay: PSAC antagonists in infected red cells, primary screen, cell-based, P. falciparum Indochina, OD700, 2 h (AID 1155);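 further: lysis reports solute entry through the parasite surface anion channel PSAC; channel blockers reduce lysis of infected cells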; settings: P. falciparum Indochina infected erythrocytes, osmotic lysis OD700; higher = more signal, called active from +8 up or from −8 down
assay_readout: z-score
I'd appreciate a reply containing only the number, no unit.

Solved cases below.
>>> df
                                   compound  recorded_number
0  CCN1C(=O)C2CC(=O)C3C(CN(S(=O)(=O)c4ccc(C)cc4)C3c3ccc(C)cc3)C2C1=O (stereo not drawn)            0.804
1  [N-]=[N+]=NCc1ccccc1[C@H]1OC(c2ccc(OCCCO)cc2)=N[C@@]1(Cc1ccccc1N=[N+]=[N-])C(N)=O             3.47
2  CN1C(=O)C2C=CC(C(O)c3cccs3)N(N(c3ccccc3)c3ccccc3)C2C1=O (stereo not drawn)                1
3  COC(=O)[C@]1(Cc2ccccc2N=[N+]=[N-])N=C(c2ccc(OCCCO)cc2)O[C@@H]1c1ccccc1CN=[N+]=[N-]             9.37
4  COC(=O)[C@@]1(Cc2ccc(F)cc2)[C@H]2c3cc(C(=O)N(C)C)n(Cc4ccc(C(F)(F)F)nc4)c3C[C@H]2CN1C(=O)c1ccccc1            0.844
5  O=C1c2ccccc2[C@@]2(Cc3ccccc3N(CC(F)(F)F)C2=O)[C@H](c2ccc(CO)cc2)N1Cc1ccccc1           -0.992
6  C=C(CC1([C@@H](NP(=O)(c2ccccc2)c2ccccc2)[C@H]2C[C@@H]2CCCC)CC1)c1cccc(OC)c1            0.451

Name the reported z-score value associated with the compound `Cc1c(NC(=O)/C(C#N)=C/C=C/c2ccc([N+](=O)[O-])cc2)c(=O)n(-c2ccccc2)n1C` 0.636
